- subject.of.test: T1, human neutrophil elastase (hNE) (human, UniProt P08246 30-267)
- T1 sequence (looked up): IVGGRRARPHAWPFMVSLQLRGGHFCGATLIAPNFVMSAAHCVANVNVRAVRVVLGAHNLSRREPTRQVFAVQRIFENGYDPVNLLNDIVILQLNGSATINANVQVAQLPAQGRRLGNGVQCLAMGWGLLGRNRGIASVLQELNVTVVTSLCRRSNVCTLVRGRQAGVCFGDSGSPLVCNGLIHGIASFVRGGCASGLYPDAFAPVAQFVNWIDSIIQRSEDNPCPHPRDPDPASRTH
- protocol.text: MST
measure.name: Kd (nM)
Answer in nM, number only, no unit symbol.

What does the data say about its Kd? Entry: CGEAIPMSIPPEVK [NE-binding peptide (NEBP)] 2080
